molecular target: E. coli DnaE (DNA polymerase III α-subunit from Escherichia coli) (Escherichia coli); construct: EcDnaE (E. coli DnaE residues 1-1160); 6xHis (N); made in house; host or cells: E. coli BL21(DE3); experiment: In vitro DnaE single enzyme assay (E. coli); type: biochemical; settings: read-out: E. coli DnaE IC50 (converted)
Sequence (P10443 whole entry, the tested form may be a part): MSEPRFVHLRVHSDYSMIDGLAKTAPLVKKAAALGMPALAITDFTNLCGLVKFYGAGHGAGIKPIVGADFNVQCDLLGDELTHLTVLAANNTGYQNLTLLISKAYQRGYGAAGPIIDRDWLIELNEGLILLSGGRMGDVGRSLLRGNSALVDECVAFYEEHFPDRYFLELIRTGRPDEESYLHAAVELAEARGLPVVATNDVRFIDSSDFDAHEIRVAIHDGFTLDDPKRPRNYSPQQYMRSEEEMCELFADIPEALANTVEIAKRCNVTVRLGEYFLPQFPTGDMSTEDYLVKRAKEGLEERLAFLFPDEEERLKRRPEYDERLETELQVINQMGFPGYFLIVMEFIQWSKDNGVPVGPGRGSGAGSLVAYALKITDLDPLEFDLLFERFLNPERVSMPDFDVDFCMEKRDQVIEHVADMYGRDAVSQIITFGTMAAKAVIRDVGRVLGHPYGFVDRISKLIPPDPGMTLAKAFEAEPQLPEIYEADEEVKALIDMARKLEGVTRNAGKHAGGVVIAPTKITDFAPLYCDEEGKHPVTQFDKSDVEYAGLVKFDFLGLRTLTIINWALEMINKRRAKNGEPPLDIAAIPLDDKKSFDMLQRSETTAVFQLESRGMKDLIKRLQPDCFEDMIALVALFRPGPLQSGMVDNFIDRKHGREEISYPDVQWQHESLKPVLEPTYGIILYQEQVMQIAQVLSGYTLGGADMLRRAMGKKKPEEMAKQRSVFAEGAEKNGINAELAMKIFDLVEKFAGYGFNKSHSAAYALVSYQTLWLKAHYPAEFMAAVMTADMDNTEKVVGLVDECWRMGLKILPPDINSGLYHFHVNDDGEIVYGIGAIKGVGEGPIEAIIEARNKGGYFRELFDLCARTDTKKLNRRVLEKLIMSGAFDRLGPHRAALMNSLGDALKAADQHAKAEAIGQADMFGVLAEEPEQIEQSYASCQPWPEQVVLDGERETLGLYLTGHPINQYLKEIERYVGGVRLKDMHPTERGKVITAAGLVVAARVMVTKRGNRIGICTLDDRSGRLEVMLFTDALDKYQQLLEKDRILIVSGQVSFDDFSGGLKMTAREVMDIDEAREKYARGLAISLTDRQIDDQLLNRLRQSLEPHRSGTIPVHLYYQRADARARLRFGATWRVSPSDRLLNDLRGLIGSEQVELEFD
Test readout: IC50

| Compound | IC50 |
| --- | --- |
| CO[C@H]1C[C@H]2[C@H](O)C[C@H]3[C@H]4O[C@]2(/C(C)=C/[C@@H](C)[C@@H]([C@@H](C)O)OC1=O)[C@@H]3[C@H](O)[C@@H](C)[C@H]4OC(=O)c1ccc[nH]1 [Example 191] | > 187 µM |
| CO[C@H]1C[C@H]2C=C[C@H]3[C@H]4O[C@]2(/C(C)=C/[C@@H](C)[C@@H]([C@@H](C)O)OC1=O)[C@@H]3[C@H](O)[C@@H](C)[C@H]4OC(C)=O [Example 186] | 64.6 µM |

Below: the item to evaluate.
I would be grateful if you could share the reported IC50 for C=C1C[C@H]2[C@H]3O[C@]4(/C(C)=C/[C@@H](C)[C@@H]([C@@H](C)O)OC(=O)[C@@H](OC)C[C@@H]14)[C@@H]2[C@H](O)[C@@H](C)[C@H]3OC(=O)c1ccc[nH]1 [Example 199] .
142 µM
